# assay_text: Probe fluorescence ratio response to linolenic acid relative to ADIFAB2
# Format: binding
# experimental_parameters: response relative to ADIFAB2
readout_name: DR/DR LNA
In your answer, state the number alone without any accompanying words.

// DR/DR LNA value for 117C, 72A (protein, listed as Rattus norvegicus, PEPTIDE (1)...(131) wild-type rat intestinal fatty acid binding protein) AFDGTWKVDRNENYEKFMEKMGINVVKRKLGAHDNLKLTITQEGNKFTVKESSNFRNIDVVFELGVDFAYSAADGTELTGTWTMEGNKLVGKFKRVDNGKELIAVREISGNELIQTCTYEGVEAKRIFKKE : −0.13

// DR/DR LNA value for 18I 31L 55L 72A (protein, listed as Rattus norvegicus, PEPTIDE (1)...(131) wild-type rat intestinal fatty acid binding protein) AFDGTWKVDRNENYEKFIEKMGINVVKRKLLAHDNLKLTITQEGNKFTVKESSNLRNIDVVFELGVDFAYSAADGTELTGTWTMEGNKLVGKFKRVDNGKELIAVREISGNELIQTYTYEGVEAKRIFKKE : 1.736

Data origin: patent US20060257938A1
